Cited source for all entries: patent US20120053165A1

Test system: production of amyloid beta protein Aβ(1-42) in human WT-APP overexpressing CHO cells
cond: read-out: Aβ 42 IC50; Geometric mean of 26 determinations; human WT-APP overexpressing CHO cells
recorded endpoint: IC50 (nM)
Answer format: numeric, nM implied, no suffix.

Ask | Lab request: please report IC50 under test system production of amyloid beta protein Aβ(1-42) in human WT-APP overexpressing CHO cells for COc1cc(C(=O)NCC2(c3ccc(F)cc3)CCC2)ccc1-n1cnc(C)c1 [Example 13]
Reply | 261

###

System: production of amyloid beta protein Aβ(1-42) in human WT-APP overexpressing CHO cells;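 also: Aβ(1-42) released into conditioned medium captured by ELISA after roughly 24 h compound exposure, vehicle and inhibitor controls defining maximal and minimal inhibition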
cond: read-out: Aβ 42 IC50; Geometric mean of 2-8 determinations; human WT-APP overexpressing CHO cells
recorded endpoint: IC50 (nM)
Output spec: scalar in nM, unitless text.

Examples from the recorded data:
{"columns": ["compound", "recorded endpoint", "result number"],
 "data": [
  ["COc1cc(C(=O)NCCc2cc(C)ccc2C)ccc1-n1cnc(C)c1", "IC50", 429],
  ["COc1cc(C(=O)NCc2cccc(C(F)(F)F)c2F)ccc1-n1cnc(C)c1", "IC50", 481],
  ["COc1cc(C(=O)NC(C)Cc2ccc(C(F)(F)F)cc2)ccc1-n1cnc(C)c1 (centres unmarked)", "IC50", 561],
  ["COc1cc(C(=O)NCc2ccc(Cl)cc2C)ccc1-n1cnc(C)c1", "IC50", 351],
  ["COc1cc(C(=O)NCc2cccc(C(=O)c3ccccc3)c2)ccc1-n1cnc(C)c1", "IC50", 316]
]}

Ask | Which IC50 reading was recorded for the compound `COc1cc(C(=O)NCc2ccc(OC(F)(F)F)cc2)ccc1-n1cnc(C)c1` ?
Reply | 339

Ask | GET /values?readout=IC50&item= `COc1cc(C(=O)NCCOc2ccccc2Cl)ccc1-n1cnc(C)c1`
Reply | 573

Ask | Reported IC50 for `COc1cc(C(=O)NCC2(c3cccc(C(F)(F)F)c3)CCC2)ccc1-n1cnc(C)c1` : what is it?
Reply | 298

Ask | So what does the record say about IC50 for `COc1cc(C(=O)NCc2cccc(Cl)c2)ccc1-n1cnc(C)c1` ?
Reply | 520

Ask | Given `COc1cc(C(=O)NCCc2nc3ccc(Cl)cc3o2)ccc1-n1cnc(C)c1` , state its recorded IC50.
Reply | 354

Ask | For COc1cc(C(=O)NC(C)CCc2ccccc2)ccc1-n1cnc(C)c1 (centres unmarked) , what is its reported IC50?
Reply | 667

Ask | Fill in the blank: the reported IC50 of `COc1cc(C(=O)NCc2cc(C)ccc2C)ccc1-n1cnc(C)c1` is ____.
Reply | 513

Ask | If you can, please state the reported IC50 value of `COc1cc(C(=O)NCc2cnc(-c3ccccc3)s2)ccc1-n1cnc(C)c1` .
Reply | 283

Ask | Entry `COc1cc(C(=O)NCc2ccc(C(=O)c3ccccc3)cc2)ccc1-n1cnc(C)c1` : reported IC50 = ?
Reply | 582

Ask | Given the entry `COc1cc(C(=O)NCC2(c3ccc(Cl)cc3)CCCC2)ccc1-n1cnc(C)c1` , report its measured IC50.
Reply | 209
